Structures can show the parent of a compound that is named as a salt.
Staphylococcus epidermidis ATCC 12228 MIC data
Numbers only, in µg/mL.

The examples below pair each entry with its known result.
| MOLECULE | MIC [µg/mL] |
| --- | --- |
| O=C(O)c1cn(C2CC2)c2c3c(ccc2c1=O)-c1cnc(NCC2CCC2)cc1COC3 [Trifluoroacetate of Compound 16] | 0.06 |
| CNc1cc2c(cn1)-c1ccc3c(=O)c(C(=O)O)cn(C4CC4)c3c1C=CC2 | 0.125 |
| CN(C)c1cc2c(cn1)-c1ccc3c(=O)c(C(=O)O)cn(C4CC4)c3c1COC2 | 0.06 |

// each molecule listed below needs its MIC
1. COc1cc2c(cn1)-c1ccc3c(=O)c(C(=O)O)cn(C4CC4)c3c1COC2
2. NCCNc1cc2c(cn1)-c1ccc3c(=O)c(C(=O)O)cn(C4CC4)c3c1COC2 [Trifluoroacetate of Compound 19]
3. N=C(N)Nc1cc2c(cn1)-c1ccc3c(=O)c(C(=O)O)cn(C4CC4)c3c1COC2 [Trifluoroacetate of Compound 27]
4. CNc1ccc2c(n1)COCc1c-2ccc2c(=O)c(C(=O)O)cn(C3CC3)c12 [Hydrochloride of Compound 1]

Output:
0.06
2
0.5
0.5

* * *

ASSAY REMARKS: Pharmacokinetic evaluation in mice after intravenous and oral administration
Type: in vivo
MEASUREMENT CONDITIONS: mouse; male CD-1 mice, plasma; IV 1 mg/kg; read-out: Clearance rate CL
Where a name gives a salt, the structure may show the parent alone.
MEASURED QUANTITY: clearance (mL/min/kg)
Give bare numbers, in mL/min/kg.

The reported clearance of the compound Nc1cc2c(cn1)-c1ccc3c(=O)c(C(=O)O)cn(C4CC4)c3c1COC2 [Hydrochloride of Compound 7] was 132

* * *

Staphylococcus epidermidis ATCC 35984 log10 of MIC data
Structures can show the parent of a compound that is named as a salt.
In our notation, the value equals log10 of MIC in µg/mL.

The examples below pair each entry with its known result.
| COMPOUND | ASSAYED TARGET | log10 of MIC |
| --- | --- | --- |
| O=C(O)c1cn(C2CC2)c2c3c(ccc2c1=O)-c1c[nH]c(=O)cc1COC3 [Compound 21] | Staphylococcus epidermidis ATCC 35984 | 0.30 |
| O=C(O)c1cn(C2CC2)c2c3c(ccc2c1=O)-c1cnccc1COC3 [Trifluoroacetate of Compound 11] | Staphylococcus epidermidis ATCC 35984 | -0.90 |
| NCCNc1cc2c(cn1)-c1ccc3c(=O)c(C(=O)O)cn(C4CC4)c3c1COC2 [Trifluoroacetate of Compound 19] | Staphylococcus epidermidis ATCC 35984 | 0.00 |
| N=C(N)NOCCOCCNc1cc2c(cn1)-c1ccc3c(=O)c(C(=O)O)cn(C4CC4)c3c1COC2 [Hydrochloride of Compound 29] | Staphylococcus epidermidis ATCC 35984 | 0.00 |
| O=C(O)c1cn(C2CC2)c2c3c(ccc2c1=O)-c1cnc(NCc2ccccc2)cc1COC3 [Trifluoroacetate of Compound 15] | Staphylococcus epidermidis ATCC 35984 | -1.22 |
| CNc1cc2c(cn1)-c1ccc3c(=O)c(C(=O)O)cn(C4CC4)c3c1COC2 [Trifluoroacetate of Compound 2] | Staphylococcus epidermidis ATCC 35984 | -1.22 |
| CNc1cc2c(cn1)-c1ccc3c(=O)c(C(=O)O)cn(C4CC4)c3c1C=CC2 [Compound 4] | Staphylococcus epidermidis ATCC 35984 | -1.22 |
| O=C(O)c1cn(C2CC2)c2c3c(ccc2c1=O)-c1cnc(NCCO)cc1COC3 [Trifluoroacetate of Compound 12] | Staphylococcus epidermidis ATCC 35984 | -1.22 |
| O=C(O)c1cn(C2CC2)c2c3c(ccc2c1=O)-c1cnc(NCC2CCC2)cc1COC3 [Trifluoroacetate of Compound 16] | Staphylococcus epidermidis ATCC 35984 | -1.22 |
| O=C(O)c1cn(C2CC2)c2c3c(ccc2c1=O)-c1cc2nc[nH]c2cc1COC3 [Compound 3] | Staphylococcus epidermidis ATCC 35984 | -1.22 |

// each compound listed below needs its log10 of MIC
1. Nc1ncc2c(n1)COCc1c-2ccc2c(=O)c(C(=O)O)cn(C3CC3)c12 [Trifluoroacetate of Compound 9]
2. CC1(C)OC[C@H](CNc2cc3c(cn2)-c2ccc4c(=O)c(C(=O)O)cn(C5CC5)c4c2COC3)O1 [Compound 26]
3. CCCNc1cc2c(cn1)-c1ccc3c(=O)c(C(=O)O)cn(C4CC4)c3c1COC2 [Trifluoroacetate of Compound 13]
4. COc1cc2c(cn1)-c1ccc3c(=O)c(C(=O)O)cn(C4CC4)c3c1COC2 [Compound 5]
5. O=C(O)c1cn(C2CC2)c2c3c(ccc2c1=O)-c1cnc(NC[C@H](O)CO)cc1COC3 [Trifluoroacetate of Compound 22]
6. N=C(N)Nc1cc2c(cn1)-c1ccc3c(=O)c(C(=O)O)cn(C4CC4)c3c1COC2 [Trifluoroacetate of Compound 27]
7. CNc1ccc2c(n1)COCc1c-2ccc2c(=O)c(C(=O)O)cn(C3CC3)c12 [Hydrochloride of Compound 1]
8. Nc1cc2c(cn1)-c1ccc3c(=O)c(C(=O)O)cn(C4CC4)c3c1COC2 [Trifluoroacetate of Compound 7]

Output:
-0.90
-0.60
-1.22
-1.22
-0.92
-0.30
-0.30
-1.52

// each compound listed below needs its log10 of MIC
1. CCNc1cc2c(cn1)-c1ccc3c(=O)c(C(=O)O)cn(C4CC4)c3c1COC2 [Trifluoroacetate of Compound 14]
2. CNc1cc2c(cn1)-c1ccc3c(=O)c(C(=O)O)cn(C4CC4)c3c1CCC2 [Trifluoroacetate of Compound 20]
3. CN(C[C@H]1COC(C)(C)O1)c1cc2c(cn1)-c1ccc3c(=O)c(C(=O)O)cn(C4CC4)c3c1COC2 [Compound 25]
4. CN(C)c1cc2c(cn1)-c1ccc3c(=O)c(C(=O)O)cn(C4CC4)c3c1COC2 [Compound 6]

Output:
1: -1.52; 2: -0.90; 3: -0.60; 4: -1.22

* * *

ASSAY REMARKS: Pharmacokinetic evaluation in mice after intravenous and oral administration
Format: in vivo
MEASUREMENT CONDITIONS: mouse; male CD-1 mice, plasma; IV 1 mg/kg; read-out: Tissue distribution Vdss
Structures can show the parent of a compound that is named as a salt.
MEASURED QUANTITY: Vd (L/kg)
Numbers only, in L/kg.

The reported Vd of the compound Nc1cc2c(cn1)-c1ccc3c(=O)c(C(=O)O)cn(C4CC4)c3c1COC2 [Hydrochloride of Compound 7] was 3.04

* * *

ASSAY REMARKS: Pharmacokinetic evaluation in mice after intravenous and oral administration
Type: in vivo
MEASUREMENT CONDITIONS: mouse; male CD-1 mice, plasma; IV 1 mg/kg, oral gavage 2 mg/kg; route of Cmax not given; read-out: Peak concentration Cmax
Procedure: CD-1 mice (male, Beijing Vital River Laboratory Animal Technology Co., Ltd.) The pharmacokinetic characteristics of rodents after intravenous and oral administration of the compounds were tested using a standard protocol. In the experiment, the candidate compounds were prepared into clear solutions and administered to mice by single intravenous injection and oral administration. The intravenous and oral vehicles were mixed vehicles of 10% DMSO+90% (20% SBE-β-CD). […]
Counter-ions that a name gives are not always drawn.
MEASURED QUANTITY: Cmax (nM)
Give bare numbers, in nM.

The reported Cmax of the compound Nc1cc2c(cn1)-c1ccc3c(=O)c(C(=O)O)cn(C4CC4)c3c1COC2 [Hydrochloride of Compound 7] was 683

* * *

ASSAY REMARKS: Pharmacokinetic evaluation in mice after intravenous and oral administration
Format: in vivo
MEASUREMENT CONDITIONS: mouse, plasma; male CD-1 mice; IV 1 mg/kg, oral gavage 2 mg/kg; read-out: Bioavailability F
Counter-ions that a name gives are not always drawn.
MEASURED QUANTITY: bioavailability (%)
Answers are plain numbers, in %.

The reported bioavailability of the compound Nc1cc2c(cn1)-c1ccc3c(=O)c(C(=O)O)cn(C4CC4)c3c1COC2 [Hydrochloride of Compound 7] was 132

Where these numbers come from: patent US20250042912A1
